test system: P. aeruginosa; assay: MIC, broth microdilution, CDC/FDA Antibiotic Resistance Isolate Bank (Example 7, Tables 10, 15); assay type: cell-based; conditions: Pseudomonas aeruginosa, P. aeruginosa KUB No. 5800, AR Bank # 457; read-out: MIC
Measurement Name: MIC (µg/mL)

[[record]]
chemical_string = "C[C@H]1COc2c(N3CCN(C)CC3)c(F)cc3c(=O)c(C(=O)O)cn1c23"
target_entity = "P. aeruginosa"
value_unit = "µg/mL"
limit_operator = "="
number = 64

[[record]]
chemical_string = "C[C@H]1[C@H](NC(=O)/C(=N\\OC(C)(C)C(=O)O)c2csc(N)n2)C(=O)N1S(=O)(=O)O"
target_entity = "P. aeruginosa"
value_unit = "µg/mL"
limit_operator = "="
number = 32

[[record]]
chemical_string = "CC(C)(O/N=C(\\C(=O)N[C@@H]1C(=O)N2C(C(=O)[O-])=C(C[N+]3(CCNC(=O)c4ccc(O)c(O)c4Cl)CCCC3)CS[C@H]12)c1csc(N)n1)C(=O)O"
target_entity = "P. aeruginosa"
value_unit = "µg/mL"
limit_operator = "="
number = 0.25

[[record]]
chemical_string = "NCC[C@H](O)C(=O)N[C@@H]1C[C@H](N)[C@@H](O[C@H]2O[C@H](CN)[C@@H](O)[C@H](O)[C@H]2O)[C@H](O)[C@H]1O[C@H]1O[C@H](CO)[C@@H](O)[C@H](N)[C@H]1O"
target_entity = "P. aeruginosa"
value_unit = "µg/mL"
limit_operator = "="
number = 2

[[record]]
chemical_string = "CN(C)c1cc(NC(=O)CNC(C)(C)C)c(O)c2c1C[C@H]1C[C@H]3[C@H](N(C)C)C(O)=C(C(N)=O)C(=O)[C@@]3(O)C(O)=C1C2=O"
target_entity = "P. aeruginosa"
value_unit = "µg/mL"
limit_operator = "="
number = 2

[[record]]
chemical_string = "CO/N=C(\\C(=O)N[C@@H]1C(=O)N2C(C(=O)[O-])=C(C[n+]3ccn4ncccc43)CS[C@H]12)c1nsc(N)n1"
target_entity = "P. aeruginosa"
value_unit = "µg/mL"
limit_operator = ">"
number = 64


---

test system: Enterobacterales; assay: MIC, broth microdilution, CDC/FDA Antibiotic Resistance Isolate Bank (Example 7, Tables 8, 11, 12); type: cell-based; settings: Klebsiella pneumoniae, KUB No. 5622, AR Bank # 125; read-out: MIC
Measurement Name: MIC (µg/mL)

[[record]]
chemical_string = "NCC[C@H](O)C(=O)N[C@@H]1C[C@H](N)[C@@H](O[C@H]2O[C@H](CN)[C@@H](O)[C@H](O)[C@H]2O)[C@H](O)[C@H]1O[C@H]1O[C@H](CO)[C@@H](O)[C@H](N)[C@H]1O"
target_entity = "Enterobacterales"
measurement_name = "MIC"
value_unit = "µg/mL"
limit_operator = "="
number = 32

[[record]]
chemical_string = "O=C(O)c1cn(C2CC2)c2cc(N3CCNCC3)c(F)cc2c1=O"
target_entity = "Enterobacterales"
measurement_name = "MIC"
value_unit = "µg/mL"
limit_operator = ">"
number = 64

[[record]]
chemical_string = "C[C@H]1COc2c(N3CCN(C)CC3)c(F)cc3c(=O)c(C(=O)O)cn1c23"
target_entity = "Enterobacterales"
measurement_name = "MIC"
value_unit = "µg/mL"
limit_operator = "="
number = 64

[[record]]
chemical_string = "CO/N=C(\\C(=O)N[C@@H]1C(=O)N2C(C(=O)[O-])=C(C[n+]3ccn4ncccc43)CS[C@H]12)c1nsc(N)n1"
target_entity = "Enterobacterales"
measurement_name = "MIC"
value_unit = "µg/mL"
limit_operator = "="
number = 32

[[record]]
chemical_string = "CC(C)(O/N=C(\\C(=O)N[C@@H]1C(=O)N2C(C(=O)[O-])=C(C[N+]3(CCNC(=O)c4ccc(O)c(O)c4Cl)CCCC3)CS[C@H]12)c1csc(N)n1)C(=O)O"
target_entity = "Enterobacterales"
measurement_name = "MIC"
value_unit = "µg/mL"
limit_operator = "="
number = 1


---

system: P. aeruginosa; test: MIC, broth microdilution, CDC/FDA Antibiotic Resistance Isolate Bank (Example 7, Tables 10, 15); type: cell-based; conditions: Pseudomonas aeruginosa, P. aeruginosa KUB No. 5704, AR Bank # 271; read-out: MIC
// log10 of MIC lookup, one value per entry
Measurement Name: log10 of MIC (log10 of the value in µg/mL)

[[record]]
molecule = "C[C@H]1COc2c(N3CCN(C)CC3)c(F)cc3c(=O)c(C(=O)O)cn1c23 [Levofloxacin, levofloxacin]"
target_entity = "P. aeruginosa"
measurement_name = "log10 of MIC"
number = 1.51

[[record]]
molecule = "CO/N=C(\\C(=O)N[C@@H]1C(=O)N2C(C(=O)[O-])=C(C[n+]3ccn4ncccc43)CS[C@H]12)c1nsc(N)n1 [Cefozopran, cefozopran]"
target_entity = "P. aeruginosa"
measurement_name = "log10 of MIC"
number = 0.00

[[record]]
molecule = "CC(C)(O/N=C(\\C(=O)N[C@@H]1C(=O)N2C(C(=O)[O-])=C(C[N+]3(CCNC(=O)c4ccc(O)c(O)c4Cl)CCCC3)CS[C@H]12)c1csc(N)n1)C(=O)O [Cefiderocol, cefiderocol]"
target_entity = "P. aeruginosa"
measurement_name = "log10 of MIC"
number = -0.60

[[record]]
molecule = "C[C@H]1[C@H](NC(=O)/C(=N\\OC(C)(C)C(=O)O)c2csc(N)n2)C(=O)N1S(=O)(=O)O [Aztreonam, aztreonam]"
target_entity = "P. aeruginosa"
measurement_name = "log10 of MIC"
number = 1.20

[[record]]
molecule = "NCC[C@H](O)C(=O)N[C@@H]1C[C@H](N)[C@@H](O[C@H]2O[C@H](CN)[C@@H](O)[C@H](O)[C@H]2O)[C@H](O)[C@H]1O[C@H]1O[C@H](CO)[C@@H](O)[C@H](N)[C@H]1O [Amikacin, amikacin]"
target_entity = "P. aeruginosa"
measurement_name = "log10 of MIC"
number = 0.60

[[record]]
molecule = "CN(C)c1cc(NC(=O)CNC(C)(C)C)c(O)c2c1C[C@H]1C[C@H]3[C@H](N(C)C)C(O)=C(C(N)=O)C(=O)[C@@]3(O)C(O)=C1C2=O [Tigecycline, tigecycline]"
target_entity = "P. aeruginosa"
measurement_name = "log10 of MIC"
number = 0.60


---

tested on: P. aeruginosa; experiment: MIC, broth microdilution, CDC/FDA Antibiotic Resistance Isolate Bank (Example 7, Tables 10, 15); type: cell-based; conditions: Pseudomonas aeruginosa, P. aeruginosa KUB No. 5678, AR Bank # 245; read-out: MIC
Recorded MIC values for a group of molecules are listed next.
Measurement Name: MIC

[[record]]
molecule = "C[C@H]1COc2c(N3CCN(C)CC3)c(F)cc3c(=O)c(C(=O)O)cn1c23 [Levofloxacin, levofloxacin]"
result = "> 64 µg/mL"

[[record]]
molecule = "C[C@H]1[C@H](NC(=O)/C(=N\\OC(C)(C)C(=O)O)c2csc(N)n2)C(=O)N1S(=O)(=O)O [Aztreonam, aztreonam]"
result = "16 µg/mL"

[[record]]
molecule = "CC(C)(O/N=C(\\C(=O)N[C@@H]1C(=O)N2C(C(=O)[O-])=C(C[N+]3(CCNC(=O)c4ccc(O)c(O)c4Cl)CCCC3)CS[C@H]12)c1csc(N)n1)C(=O)O [Cefiderocol, cefiderocol]"
result = "0.25 µg/mL"


---

tested on: A. baumannii; experiment: MIC, broth microdilution, CDC/FDA Antibiotic Resistance Isolate Bank (Example 7, Tables 9, 13, 14); assay type: cell-based, Acinetobacter baumannii; conditions: Acinetobacter baumannii, KUB No. 5726, AR Bank #293; read-out: MIC
Property: MIC; scope: individual compounds
Measurement Name: MIC (µg/mL)

[[record]]
chemical_string = "CC(C)(O/N=C(\\C(=O)N[C@@H]1C(=O)N2C(C(=O)[O-])=C(C[N+]3(CCNC(=O)c4ccc(O)c(O)c4Cl)CCCC3)CS[C@H]12)c1csc(N)n1)C(=O)O"
target_entity = "A. baumannii"
measurement_name = "MIC"
number = 0.5

[[record]]
chemical_string = "NCC[C@H](O)C(=O)N[C@@H]1C[C@H](N)[C@@H](O[C@H]2O[C@H](CN)[C@@H](O)[C@H](O)[C@H]2O)[C@H](O)[C@H]1O[C@H]1O[C@H](CO)[C@@H](O)[C@H](N)[C@H]1O"
target_entity = "A. baumannii"
measurement_name = "MIC"
number = 16

[[record]]
chemical_string = "CO/N=C(\\C(=O)N[C@@H]1C(=O)N2C(C(=O)[O-])=C(C[n+]3ccn4ncccc43)CS[C@H]12)c1nsc(N)n1"
target_entity = "A. baumannii"
measurement_name = "MIC"
number = 16

[[record]]
chemical_string = "C[C@H]1COc2c(N3CCN(C)CC3)c(F)cc3c(=O)c(C(=O)O)cn1c23"
target_entity = "A. baumannii"
measurement_name = "MIC"
number = 4

[[record]]
chemical_string = "CN(C)c1cc(NC(=O)CNC(C)(C)C)c(O)c2c1C[C@H]1C[C@H]3[C@H](N(C)C)C(O)=C(C(N)=O)C(=O)[C@@]3(O)C(O)=C1C2=O"
target_entity = "A. baumannii"
measurement_name = "MIC"
number = 2

